Tested on: Wolbachia pipientis
experiment: Anti-Wolbachia Cell-Based Screen
Type: functional
Parameters: scale not given: in the data most compounds retested in dose-response had high values
settings: 5 µM
Among all 48,000 compounds or so, about 13,000 (27%) showed an effect of 50% or more. Some of the results follow.
Consider the following compounds; for each one, report its Percent Effect.
Report only the number, with the unit % understood.

Entry O=C(c1nn(-c2ccccc2F)cc1O)N1CCCC1 , tested on Wolbachia pipientis, has a reported Percent Effect of -1.057

Entry CCNc1cc2c(nn1)CCN(C(=O)Cc1c(C)nn(C)c1C)C2 , tested on Wolbachia pipientis, has a reported Percent Effect of 126.1

Entry CC(C)Oc1ncccc1CNC(=O)c1ccco1 , tested on Wolbachia pipientis, has a reported Percent Effect of 7.44

Entry CN1C(=O)CC(c2ccccc2)C12CCN(c1ncc(F)cn1)CC2 (stereo unspecified) , tested on Wolbachia pipientis, has a reported Percent Effect of 11.07

Entry CC(NC(N)=O)C(=O)NCc1ccc(Br)c(F)c1 (stereo unspecified) , tested on Wolbachia pipientis, has a reported Percent Effect of -7.533

Entry CCNc1cc2c(nn1)CCN(C(=O)C1Cc3ccccc3S1)C2 (stereo unspecified) , tested on Wolbachia pipientis, has a reported Percent Effect of -4.507

###

Test system: Wolbachia pipientis
experiment: Anti-Wolbachia Cell-Based Screen
Assay type: functional
Parameters: scale not given: in the data most compounds retested in dose-response had high values
settings: 5 µM
Hit rate of the full screen: of about 48,000 compounds, about 13,000 (27%) showed an effect of 50% or more. Some of the results follow.
Consider the following compounds; for each one, report its Percent Effect.
Report only the number, with the unit % understood.

// Percent Effect lookup, compound = COc1cccc(OC2CN(C(=O)Cn3nc4ccccc4n3)C2)c1 , result: -0.01054

// Percent Effect lookup, compound = CN(C)CCN1C(=O)CC[C@@H]2[C@H]1CCN2C(=O)c1ccc(C#N)cc1.O=C(O)C(F)(F)F , result: -26.6

// Percent Effect lookup, compound = O=C(O)C(F)(F)F.c1cnc(N2CC[C@@H](OCC3CC3)[C@@H]2Cc2cccnc2)nc1 , result: 125.6

// Percent Effect lookup, compound = COC(C)(C)C(=O)N1Cc2cnc(C(C)(C)C)nc2C1 , result: 5.24

// Percent Effect lookup, compound = Cc1cccc(-c2nc(C)nn2CN2CCN(c3ncccn3)CC2)c1 , result: -20.31

###

Tested on: Wolbachia pipientis
experiment: Anti-Wolbachia Cell-Based Screen
Type: functional
Parameters: scale not given: in the data most compounds retested in dose-response had high values
settings: 5 µM
The whole screen tested about 48,000 compounds, of which about 13,000 (27%) showed an effect of 50% or more. The list shows a part of the results.
property: Percent Effect (%)
Report only the number, with the unit % understood.

// Percent Effect lookup, compound = O=C(NCc1cnc2n1CCN(Cc1ccoc1)C2)c1ccno1.O=C(O)C(F)(F)F , result: 0.5733

// Percent Effect lookup, compound = CN(C)c1cc(C(F)(F)F)nc(N2CCCC2c2ccccn2)n1 (stereo unspecified) , result: 96.36

// Percent Effect lookup, compound = COCCn1cc2c(n1)C(CNCc1ccsc1)OCC2.O=C(O)C(F)(F)F (stereo unspecified) , result: 95.33

// Percent Effect lookup, compound = c1ccc(C2CCCN2C2CSCCSC2)nc1 (stereo unspecified) , result: 20.29

// Percent Effect lookup, compound = Cc1cc(C2CCC2)nc(N(C)CCc2ccccn2)n1 , result: 10.11

// Percent Effect lookup, compound = Cc1ccc(S(=O)(=O)N2CCc3nc(C4CCNCC4)ncc3C2)cc1.Cl , result: -12.78

###

System: Wolbachia pipientis
experiment: Anti-Wolbachia Cell-Based Screen
Assay type: functional
Design: scale not given: in the data most compounds retested in dose-response had high values
settings: 5 µM
About 13,000 (27%) of roughly 48,000 compounds showed an effect of 50% or more. The list shows a part of the results.
Under this convention, label 1 denotes Percent Effect strictly below 20% and label 0 denotes Percent Effect at or above 20%.

Ask | Hello, I'm reviewing records and need to know if Percent Effect of CC(=O)NCCC(=O)Nc1cccc(N2CCN(CC3CC3)CC2)c1 is below 20%. Could you check?
Reply | label 1

Ask | Hello, I'm reviewing records and need to know if Percent Effect of CCn1nc(C)c2nnn(CC(=O)Nc3c(C)cccc3C)c(=O)c21 is below 20%. Could you check?
Reply | label 1

Ask | Hello, I'm reviewing records and need to know if Percent Effect of CN(C)c1cnn(CC(=O)N2CCN(Cc3cccs3)CC2)c(=O)c1 is below 20%. Could you check?
Reply | label 1

Ask | Hello, I'm reviewing records and need to know if Percent Effect of Cc1ccc(=O)n(CC2(O)CCN(Cc3cccs3)CC2)n1 is below 20%. Could you check?
Reply | label 0

Ask | Hello, I'm reviewing records and need to know if Percent Effect of O=C(CS(=O)(=O)C1CCCC1)NC(c1ccc(F)cc1)C1CC1 (centres undefined) is below 20%. Could you check?
Reply | label 0

Ask | Hello, I'm reviewing records and need to know if Percent Effect of CCN1CCCC1Cn1ccc2ccc(C(=O)OC)cc2c1=O (centres undefined) is below 20%. Could you check?
Reply | label 1

Ask | Hello, I'm reviewing records and need to know if Percent Effect of CSc1cccc(CN(C)C(=O)Nc2nc(C)n(C)n2)c1 is below 20%. Could you check?
Reply | label 1

Ask | Hello, I'm reviewing records and need to know if Percent Effect of CCCOCCCNc1nccc(-c2cn(C)nc2C)n1 is below 20%. Could you check?
Reply | label 1

Ask | Hello, I'm reviewing records and need to know if Percent Effect of Cc1ccc(=O)n(CC2(O)CCN(Cc3cnc(C)nc3)CC2)n1 is below 20%. Could you check?
Reply | label 1

Ask | Hello, I'm reviewing records and need to know if Percent Effect of CS(=O)(=O)NC1CCCN(C(=O)NCc2ccccc2Cl)C1 (centres undefined) is below 20%. Could you check?
Reply | label 0

Ask | Hello, I'm reviewing records and need to know if Percent Effect of CNC(=O)c1cccc(CN2CCN(C3=NCC(C)(C)S3)CC2)c1 is below 20%. Could you check?
Reply | label 0

Ask | Hello, I'm reviewing records and need to know if Percent Effect of O=C(NCc1cccc(N2CC=CC2)c1)NC1CC1 is below 20%. Could you check?
Reply | label 1

Ask | Hello, I'm reviewing records and need to know if Percent Effect of COc1ccccc1CNC(=O)N1CCCC(NS(C)(=O)=O)C1 (centres undefined) is below 20%. Could you check?
Reply | label 1

Ask | Hello, I'm reviewing records and need to know if Percent Effect of CN1C[C@@H]2CN(C(=O)NCc3cccc(F)c3)CCC[C@]2(C(=O)O)C1.O=C(O)C(F)(F)F is below 20%. Could you check?
Reply | label 1

Ask | Hello, I'm reviewing records and need to know if Percent Effect of Cc1ccc(=O)n(CC2(O)CCN(Cc3ccsc3)CC2)n1 is below 20%. Could you check?
Reply | label 1

Ask | Hello, I'm reviewing records and need to know if Percent Effect of CC(c1cccc(F)c1)N1CCN(Cc2nccn2C)CC1 (centres undefined) is below 20%. Could you check?
Reply | label 0

Ask | Hello, I'm reviewing records and need to know if Percent Effect of CCc1nnc(SC2CCN(c3ccccc3F)C2=O)n1C (centres undefined) is below 20%. Could you check?
Reply | label 1

Ask | Hello, I'm reviewing records and need to know if Percent Effect of Cc1nn(C)c(C)c1NC(=O)CNC(c1ccccc1)C1CCCC1 (centres undefined) is below 20%. Could you check?
Reply | label 1

Ask | Hello, I'm reviewing records and need to know if Percent Effect of CNC(=O)c1cccc(CN2CCN(c3ccncc3)CC2)c1 is below 20%. Could you check?
Reply | label 0

Ask | Hello, I'm reviewing records and need to know if Percent Effect of CCn1ccnc1CN1CCN(CC(O)c2cccc(F)c2)CC1 (centres undefined) is below 20%. Could you check?
Reply | label 0

Ask | Hello, I'm reviewing records and need to know if Percent Effect of CC(=O)Nc1cccc(Cn2nc(C)nc2C)c1 is below 20%. Could you check?
Reply | label 1

Ask | Hello, I'm reviewing records and need to know if Percent Effect of COc1ccc(C(C)N2CCN(Cc3nccn3C)CC2)cc1Cl (centres undefined) is below 20%. Could you check?
Reply | label 1

Ask | Hello, I'm reviewing records and need to know if Percent Effect of CCc1ccsc1CNC(=O)CNC(=O)C(C)(C)C is below 20%. Could you check?
Reply | label 1

Ask | Hello, I'm reviewing records and need to know if Percent Effect of O=C(CCc1ccc(Br)cc1F)NS(=O)(=O)c1ccc2c(c1)OCCO2 is below 20%. Could you check?
Reply | label 1

###

System: Wolbachia pipientis
experiment: Anti-Wolbachia Cell-Based Screen
Type: functional
Set-up: scale not given: in the data most compounds retested in dose-response had high values
settings: 5 µM
Screen size: about 48,000 compounds; about 13,000 (27%) showed an effect of 50% or more. This is one part of the list.
Use Satisfied when the recorded Percent Effect is no lower than 90%; use Not satisfied when it is lower.

Ask | # check: Percent Effect of O=C(O)C(F)(F)F.O=C([C@H]1CC[C@@H]2[C@@H](CCN2Cc2nccs2)O1)N1CCOCC1 is greater than or equal to 90%
Reply | Satisfied

Ask | # check: Percent Effect of O=C(O)C(F)(F)F.O=C(O)C(F)(F)F.O=C(O)C(F)(F)F.c1cncc(C[C@H]2[C@H](N3CCOCC3)CCN2Cc2nccs2)c1 is greater than or equal to 90%
Reply | Not satisfied

Ask | # check: Percent Effect of CC(Nc1ccn(CCS(C)(=O)=O)n1)c1ccc(C#N)cc1 (stereo not given) is greater than or equal to 90%
Reply | Not satisfied

Ask | # check: Percent Effect of Cc1noc(C)c1C(=O)N1CCSc2ccc(Cl)cc21 is greater than or equal to 90%
Reply | Satisfied

Ask | # check: Percent Effect of COc1ccc(-c2ccc(C(=O)NS(C)(=O)=O)c(F)c2)cc1 is greater than or equal to 90%
Reply | Not satisfied

Sourced from ChEMBL document CHEMBL3988442
